- Assayed Target: T1, human GIP receptor (human, UniProt P48546 22-466)
- T1 sequence (looked up): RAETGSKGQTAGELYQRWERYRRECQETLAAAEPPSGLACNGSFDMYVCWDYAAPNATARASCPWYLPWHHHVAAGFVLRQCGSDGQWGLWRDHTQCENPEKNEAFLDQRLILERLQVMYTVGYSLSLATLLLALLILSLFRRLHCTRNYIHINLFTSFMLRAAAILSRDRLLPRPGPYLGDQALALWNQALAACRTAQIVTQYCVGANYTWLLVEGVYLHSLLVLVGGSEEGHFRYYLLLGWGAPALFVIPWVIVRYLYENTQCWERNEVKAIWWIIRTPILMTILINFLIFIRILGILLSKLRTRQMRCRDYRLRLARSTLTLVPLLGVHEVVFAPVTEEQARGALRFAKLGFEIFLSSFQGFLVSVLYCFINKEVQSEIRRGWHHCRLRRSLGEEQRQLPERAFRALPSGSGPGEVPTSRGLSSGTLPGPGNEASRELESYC
- Assay Comment: cell-based or functional assay
Numbered stars: 1 amine (or outer) side, 2 acyl side, 3 side chain; on linkers, the order of the positions; unused ones are H or OH. Square brackets hold non-standard residues; d marks the D form. Side chains are listed from the residue outwards. * marks the point of attachment. C20 diacid = O=C(O)CCCCCCCCCCCCCCCCCCC(=O)*; C18 diacid = O=C(O)CCCCCCCCCCCCCCCCC(=O)*; C16 diacid = O=C(O)CCCCCCCCCCCCCCC(=O)*; γGlu = O=C(O)[C@H](CCC(=O)[*:2])N[*:1]; Chem. 28 = not defined here; AEEA = NCCOCCOCC(=O)O; Aib = CC(C)(N)C(=O)O
Measurement Kind: hGIPR Potency, 1% HSA, EC50 [pM]

// below: answered binders
Reported hGIPR Potency, 1% HSA, EC50 [pM] ( Compound 61 (peptide) peptide: H[Aib]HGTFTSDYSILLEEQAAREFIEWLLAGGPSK([AEEA-AEEA-γGlu-C16 diacid])GAPPPSGGGEASHLSTAQTARLSAELHRLADLPRTETGSGSP-NH2 ) = 16 pM

Per the record, Compound 60 (peptide) peptide: Y[Aib]EGTFTSDYSILLEEQAAREFIEWLLAGGPSSGALAQTLAQTLASHLSTAQTQRLSAELHK([AEEA-AEEA-γGlu-C20 diacid])LATLPRTETGSGSP-NH2 has hGIPR Potency, 1% HSA, EC50 [pM] of 28.3 pM

Briefly, hGIPR Potency, 1% HSA, EC50 [pM] measured for Compound 88 (peptide) peptide: H[Aib]HGTFTSDYSILLEEQAAREFIEWLLAGGPSSGEASHLSTAALGRLSAELHK([AEEA-AEEA-γGlu-C18 diacid])LATLPRTETGSGSP-NH2 : 40.4 pM

***
# hGIPR Potency, 1% HSA, EC50 [pM] (binder: Compound 45 (reading uncertain) peptide: H[Aib]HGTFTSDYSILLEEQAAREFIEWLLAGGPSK(Chem. 28)GALAQTLGTNEASHLSTAQTQRLSAELHELATLPRTETGSGSP-NH2 ) is 132 pM
